Target: NLRP3 inflammasome (Homo sapiens, UniProt Q96P20)
Construct: freshly isolated from human peripheral blood from healthy donors; StemCells Technologies; host or cells: primary human PBMCs
Sequence (Q96P20 whole entry): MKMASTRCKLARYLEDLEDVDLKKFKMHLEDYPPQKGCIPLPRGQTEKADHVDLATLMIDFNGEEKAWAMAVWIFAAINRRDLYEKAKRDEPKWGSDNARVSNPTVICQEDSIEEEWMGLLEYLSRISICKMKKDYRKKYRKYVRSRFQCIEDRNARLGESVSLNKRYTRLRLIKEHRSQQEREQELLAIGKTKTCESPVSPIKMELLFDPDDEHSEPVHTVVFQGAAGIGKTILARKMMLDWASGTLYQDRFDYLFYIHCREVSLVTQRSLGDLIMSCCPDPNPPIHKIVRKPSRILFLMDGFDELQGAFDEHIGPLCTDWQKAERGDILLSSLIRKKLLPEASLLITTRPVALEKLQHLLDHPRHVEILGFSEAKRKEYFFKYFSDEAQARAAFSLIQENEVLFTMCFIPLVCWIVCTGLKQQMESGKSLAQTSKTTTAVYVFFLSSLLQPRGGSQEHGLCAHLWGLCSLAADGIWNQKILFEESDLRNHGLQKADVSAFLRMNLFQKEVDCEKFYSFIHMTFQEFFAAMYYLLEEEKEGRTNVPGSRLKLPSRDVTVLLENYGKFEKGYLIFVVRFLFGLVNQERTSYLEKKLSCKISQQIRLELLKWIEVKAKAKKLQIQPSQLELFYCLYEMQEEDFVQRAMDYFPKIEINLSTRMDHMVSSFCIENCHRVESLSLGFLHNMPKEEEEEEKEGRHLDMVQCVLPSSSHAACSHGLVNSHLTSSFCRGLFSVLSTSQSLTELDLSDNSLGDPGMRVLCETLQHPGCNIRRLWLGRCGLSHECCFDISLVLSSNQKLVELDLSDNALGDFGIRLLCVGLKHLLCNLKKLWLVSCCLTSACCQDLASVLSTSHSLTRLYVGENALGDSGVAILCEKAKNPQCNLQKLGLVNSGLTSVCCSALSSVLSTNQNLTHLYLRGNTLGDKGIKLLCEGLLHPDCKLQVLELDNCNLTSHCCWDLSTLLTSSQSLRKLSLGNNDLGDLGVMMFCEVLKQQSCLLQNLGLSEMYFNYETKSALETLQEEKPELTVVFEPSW
Assay: NLRP3 inflammasome activation assay in LPS-primed, nigericin-stimulated PBMCs, IL-1β release
Assay type: cell-based
Details: PBMC, LPS priming, 10 μM nigericin; read-out: PMBC IL-1β IC50
Experimental: Some of the following assays were used to determine the inhibitory activity of the compounds on the NLRP3 inflammasome using a common inflammasome activation stimuli-nigericin. […] For ELISA assays cells are seeded into 96-well plates. Post study, supernatants are removed and the levels of mature IL-1β, IL18 and TNFα (Quantikine ELISA, R&D systems) are measured in cell conditioned media by ELISA according to manufacturer's instructions. […]
pIC50: −log10 of the molar value.
observed.property: pIC50

Worked cases, answers included:
>  <compound>
CC(C)c1cc(C#N)nc(C(C)C)c1NC(=O)NS(=O)(=O)c1cnn2c1OCCC2

>  <pIC50>
5.90

$$$$
>  <compound>
O=C(NC1CCOc2ccccc21)NS(=O)(=O)c1cnn2c1OCCC2 (racemic)

>  <pIC50>
< 5.00

$$$$

Let us move to another entry and its pIC50.
Respond only with pIC50 recorded for O=C(NN1CC2CCCC2C1)NS(=O)(=O)c1cnn2c1OCCC2 (single isomer, unassigned) [Example 13a]
< 5.00

====

Molecular target: NLRP3 inflammasome (Homo sapiens)
Construct: freshly isolated from human peripheral blood from healthy donors; StemCells Technologies; host or cells: primary human PBMCs
Experiment: NLRP3 inflammasome activation assay in LPS-primed, nigericin-stimulated PBMCs, IL-1β release
Type: cell-based
Conditions: PBMC, LPS priming, 10 μM nigericin; read-out: PMBC IL-1β IC50
Property: pIC50; scope: individual compounds
Scale: negative log10 of molar concentration, which is what pIC50 denotes.

>  <compound>
COc1cc(C(C)C)c(NC(=O)NS(=O)(=O)c2cnn3c2OC[C@@H](N2CC(OC)C2)C3)c(C(C)C)n1 [Example 42a]

>  <pIC50>
6.92

$$$$

Let us move to another entry and its pIC50.
Respond only with pIC50 recorded for "CC(C)c1nn(CC2CC2)c(C(C)C)c1NC(=O)NS(=O)(=O)c1cnn2c1OCCC2"
6.02

====

Biological target: NLRP3 inflammasome (Homo sapiens)
Construct: freshly isolated from human peripheral blood from healthy donors; StemCells Technologies; host or cells: primary human PBMCs
Assay: NLRP3 inflammasome activation assay in LPS-primed, nigericin-stimulated PBMCs, IL-1β release
Format: cell-based
Details: LPS 100 ng/mL priming, 10 μM nigericin; read-out: IL-1B pIC50 (converted)
observed.property: IC50

>  <compound>
O=C(NC1C2CC3CC(C2)C1C3)NS(=O)(=O)c1cnn2c1OCCC2 (centres unmarked)

>  <IC50>
1 to 10 µM

$$$$

Respond only with IC50 recorded for CC(C)c1cc(C(F)(F)F)nc(C(C)C)c1NC(=O)NS(=O)(=O)c1cnn2c1OCCC2 [drawing 421]
0.1 to 1 µM

Respond only with IC50 recorded for Cc1cc(C)nc(NC(=O)NS(=O)(=O)c2cnn3c2OCCC3)n1 [drawing 390]
> 10 µM

Respond only with IC50 recorded for O=C(NC1c2ccccc2-c2ccccc21)NS(=O)(=O)c1cnn2c1OCCC2 [drawing 370]
> 10 µM

Respond only with IC50 recorded for Cc1onc(-c2ccccc2)c1NC(=O)NS(=O)(=O)c1cnn2c1OCCC2 [drawing 373]
> 10 µM

====

Tested on: THP-1 ASC-GFP cells
Experiment: THP-1 ASC-GFP speck assay (NLRP3 inflammasome activation, nigericin)
Assay type: cell-based
Details: THP1-ASC-GFP; PMA-differentiated, LPS primed, 10 μM nigericin
pIC50: −log10 of the molar value.
Use 6 as the dividing line for pIC50, with the line itself on the Y side and lower values as N.

Examples from the recorded data:
>  <compound>
CO[C@@H]1COc2c(S(=O)(=O)NC(=O)Nc3c(C(C)C)cc(C(F)(F)F)nc3C(C)C)cnn2C1 [Example 80a]

>  <class>
Y

$$$$
>  <compound>
CC(C)c1nn(C(C)C)c(C(C)C)c1NC(=O)NS(=O)(=O)c1cnn2c1OCCC2

>  <class>
N

$$$$

# bool: pIC50 of "O=C(Nc1nc(Cl)cc(Cl)n1)NS(=O)(=O)c1cnn2c1OCCC2" >= 6
N

# bool: pIC50 of "CC(C)c1cc(OC2CC2)nc(C(C)C)c1NC(=O)NS(=O)(=O)c1cnn2c1OCCC2" >= 6
N

# bool: pIC50 of "CCOc1cc(C(C)C)c(NC(=O)NS(=O)(=O)c2cnn3c2OCCC3)c(C(C)C)n1" >= 6
N

# bool: pIC50 of CO[C@@H]1COc2c(S(=O)(=O)NC(=O)Nc3c(C(C)C)nn(CC(F)F)c3C(C)C)cnn2C1 [Example 62a] >= 6
Y

# bool: pIC50 of "CCn1nc(C(C)C)c(NC(=O)NS(=O)(=O)c2cnn3c2OCCC3)c1C(C)C" >= 6
N

# bool: pIC50 of "Cc1cc(C(C)C)c(NC(=O)NS(=O)(=O)c2cnn3c2OCCC3)c(C(C)C)n1" >= 6
N

# bool: pIC50 of "CC(C)c1cc(Cl)nc(NC(=O)NS(=O)(=O)c2cnn3c2OCCC3)n1" >= 6
N

# bool: pIC50 of CC(C)n1nc2c(c1NC(=O)NS(=O)(=O)c1cnn3c1OC[C@@H](N(C)C)C3)CCC2 [Example 77a] >= 6
N

# bool: pIC50 of "Cc1cc(C2CC2)nc(NC(=O)NS(=O)(=O)c2cnn3c2OCCC3)n1" >= 6
N

# bool: pIC50 of "CC(C)c1cc(OC(F)(F)F)nc(C(C)C)c1NC(=O)NS(=O)(=O)c1cnn2c1OCCC2" >= 6
N

# bool: pIC50 of "CC(C)c1nn(CC(F)(F)F)c(C(C)C)c1NC(=O)NS(=O)(=O)c1cnn2c1OCC(C)(C)C2" >= 6
Y

# bool: pIC50 of "CC(C)(C)c1cc(C(C)(C)C)nc(NC(=O)NS(=O)(=O)c2cnn3c2OCCC3)n1" >= 6
N

====

Target: NLRP3 inflammasome (Homo sapiens)
Construct: freshly isolated from human peripheral blood from healthy donors; StemCells Technologies; host or cells: primary human PBMCs
Test: NLRP3 inflammasome activation assay in LPS-primed, nigericin-stimulated PBMCs, IL-1β release
Type: cell-based
Details: LPS 100 ng/mL priming, 10 μM nigericin; read-out: IL-1B pIC50 (converted)
observed.property: IC50

Worked cases, answers included:
>  <molecule>
CCn1nc(C(C)C)c(NC(=O)NS(=O)(=O)c2cnn3c2OCCC3)c1C(C)C [drawing 401]

>  <assay.target>
NLRP3 inflammasome (Homo sapiens)

>  <IC50>
1 to 10 µM

$$$$
>  <molecule>
CC1CCCC(C)N1NC(=O)NS(=O)(=O)c1cnn2c1OCCC2 (stereo not drawn)

>  <assay.target>
NLRP3 inflammasome (Homo sapiens)

>  <IC50>
> 10 µM

$$$$
>  <molecule>
COc1cc(C(C)C)c(NC(=O)NS(=O)(=O)c2cnn3c2OC[C@@H](N(C)C)C3)c(C(C)C)n1 [drawing 419]

>  <assay.target>
NLRP3 inflammasome (Homo sapiens)

>  <IC50>
0.1 to 1 µM

$$$$
>  <molecule>
O=C(NC1(c2ccccc2)CC1)NS(=O)(=O)c1cnn2c1OCCC2 [drawing 376]

>  <assay.target>
NLRP3 inflammasome (Homo sapiens)

>  <IC50>
> 10 µM

$$$$
>  <molecule>
CC(C)c1nn(C(C)C)c(C(C)C)c1NC(=O)NS(=O)(=O)c1cnn2c1OCCC2 [drawing 400]

>  <assay.target>
NLRP3 inflammasome (Homo sapiens)

>  <IC50>
1 to 10 µM

$$$$
>  <molecule>
CC1(C)CCc2ccccc2C1NC(=O)NS(=O)(=O)c1cnn2c1OCCC2 (stereo not drawn) [drawing 366]

>  <assay.target>
NLRP3 inflammasome (Homo sapiens)

>  <IC50>
> 10 µM

$$$$
>  <molecule>
Cc1ccc(Br)c(NC(=O)NS(=O)(=O)c2cnn3c2OCCC3)n1 [drawing 385]

>  <assay.target>
NLRP3 inflammasome (Homo sapiens)

>  <IC50>
> 10 µM

$$$$
>  <molecule>
CC1Cc2ccccc2C1NC(=O)NS(=O)(=O)c1cnn2c1OCCC2 (stereo not drawn) [drawing 371]

>  <assay.target>
NLRP3 inflammasome (Homo sapiens)

>  <IC50>
> 10 µM

$$$$

Respond only with IC50 recorded for COc1cc(C(C)C)c(NC(=O)NS(=O)(=O)c2cnn3c2OCC(CNC(C)=O)C3)c(C(C)C)n1 (stereo not drawn)
1 to 10 µM

====

Target: NLRP3 inflammasome (Homo sapiens)
Construct: freshly isolated from human peripheral blood from healthy donors; StemCells Technologies; host or cells: primary human PBMCs
Experiment: NLRP3 inflammasome activation assay in LPS-primed, nigericin-stimulated PBMCs, IL-1β release
Format: cell-based
Details: LPS 100 ng/mL priming, 10 μM nigericin; read-out: IL-1B pIC50 (converted)
Property: IC50; scope: individual compounds

>  <compound>
CC(C)NC(=O)NS(=O)(=O)c1cnn2c1OCC(CN)C2 (stereo not drawn)

>  <assay.target>
NLRP3 inflammasome (Homo sapiens)

>  <IC50>
> 10000 nM

$$$$

Respond only with IC50 recorded for COc1cc(C(C)C)c(NC(=O)NS(=O)(=O)c2cnn3c2OCCC3)c(C(C)C)n1 [drawing 396]
100 to 1000 nM

Respond only with IC50 recorded for CN[C@@H]1COc2c(S(=O)(=O)NC(=O)Nc3c(C(C)C)cc(OC)nc3C(C)C)cnn2C1 [drawing 408]
100 to 1000 nM

Respond only with IC50 recorded for O=C(NN1CC2CCCC2C1)NS(=O)(=O)c1cnn2c1OCCC2 (stereo not drawn)
> 10000 nM

All figures here come from patent US11560391B2.
